Recorded pIC50 values for a group of compounds are listed next.
- measured.on: Recombinant human HSD17B13 (Homo sapiens (Human))
- measurement.protocol: HSD17B13 rapid-fire mass spectrometry assay (RF/MS assay)
- Assay type: biochemical
- stated.conditions: inhibition of HSD17B13; LTB4 10 μM, NAD+ 0.5 mM, RT 3 h; IC50 ranges A-E
pIC50: −log10 of the molar value.

compound: COc1cc(O)ccc1NS(=O)(=O)c1cnc(-c2ccc(F)cc2)s1 [Example 110]
measured.on: Recombinant human HSD17B13 (Homo sapiens (Human))
pIC50: 4.00 to 6.00
--
compound: COc1cc(C(=O)O)c(F)cc1NS(=O)(=O)c1cnn(-c2ccc(C3CCC(C)(C)CC3)cc2)c1 [Example 684]
measured.on: Recombinant human HSD17B13 (Homo sapiens (Human))
pIC50: 6.30 to 7.00
--
compound: O=C(O)C1CCC(NS(=O)(=O)c2cnc(-c3ccc(F)cc3)s2)CC1 (stereo not shown) [Example 66]
measured.on: Recombinant human HSD17B13 (Homo sapiens (Human))
pIC50: < 4.00
--
compound: COc1cc(C(=O)O)ccc1NS(=O)(=O)c1ccc(-c2ccccc2)cc1 [Example 144]
measured.on: Recombinant human HSD17B13 (Homo sapiens (Human))
pIC50: 6.30 to 7.00
--
compound: CC[C@H]1CC[C@H](c2ccc(-c3nc(S(=O)(=O)Nc4cc5c(cc4OC)C(=O)NC5)cs3)cc2)CC1 [Example 574]
measured.on: Recombinant human HSD17B13 (Homo sapiens (Human))
pIC50: 4.00 to 6.00
--
compound: O=C(O)c1ccc(NS(=O)(=O)c2cnc(-c3ccc(F)cc3)s2)c(OC2CC2)c1 [Example 43]
measured.on: Recombinant human HSD17B13 (Homo sapiens (Human))
pIC50: 4.00 to 6.00
--
compound: COc1cc(C(=O)O)ccc1NS(=O)(=O)Nc1nc2ccc(-c3ccc(F)cc3)cc2s1 [Example 329]
measured.on: Recombinant human HSD17B13 (Homo sapiens (Human))
pIC50: 4.00 to 6.00
--
compound: COc1cc(C(=O)O)ccc1NS(=O)(=O)c1csc(N2CCCC(Cc3ccc(C(F)(F)F)cc3)C2)n1 (stereo not shown) [Example 283]
measured.on: Recombinant human HSD17B13 (Homo sapiens (Human))
pIC50: 6.30 to 7.00
--
compound: COc1cc(C(=O)O)ccc1NS(=O)(=O)c1csc(-c2ccc(C3CCC(OC)CC3)cc2)n1 (stereo not shown) [Example 503]
measured.on: Recombinant human HSD17B13 (Homo sapiens (Human))
pIC50: 6.30 to 7.00
--
compound: COc1cc(C(=O)O)c(F)cc1NS(=O)(=O)c1csc(-c2ccc(-c3ccccn3)cc2)n1 [Example 635]
measured.on: Recombinant human HSD17B13 (Homo sapiens (Human))
pIC50: 6.30 to 7.00
--
compound: COc1cc(C(=O)O)ccc1NS(=O)(=O)c1csc(C#Cc2cccc(Cl)c2)n1 [Example 197]
measured.on: Recombinant human HSD17B13 (Homo sapiens (Human))
pIC50: > 7.00
--
compound: COc1cc(C(=O)O)ccc1NS(=O)(=O)c1csc(N2CCCC(Cc3ccc(C)cc3)C2)n1 (stereo not shown) [Example 274]
measured.on: Recombinant human HSD17B13 (Homo sapiens (Human))
pIC50: 6.00 to 6.30
--
compound: COc1cc(C(=O)O)ccc1NS(=O)(=O)c1ccc(-c2ccc(-c3ccc(F)cc3)cc2)s1 [Example 205]
measured.on: Recombinant human HSD17B13 (Homo sapiens (Human))
pIC50: 6.30 to 7.00
--
compound: COc1cc(C(=O)O)c(F)cc1NS(=O)(=O)c1csc(-c2ccc(C3CCC(C)(C)CC3)c(OC)c2F)n1 [Example 548]
measured.on: Recombinant human HSD17B13 (Homo sapiens (Human))
pIC50: > 7.00
--
compound: COc1cc(C(=O)O)ccc1NS(=O)(=O)c1csc(-c2ccc(N3CCOCC3)cc2)n1 [Example 303]
measured.on: Recombinant human HSD17B13 (Homo sapiens (Human))
pIC50: 4.00 to 6.00
--
compound: COc1cc(C(=O)O)c(F)cc1NS(=O)(=O)c1csc(-c2ccc(NC3CCC(C)(C)CC3)cc2)n1 [Example 631]
measured.on: Recombinant human HSD17B13 (Homo sapiens (Human))
pIC50: > 7.00

---

- measured.on: Recombinant human HSD17B13 (Homo sapiens (Human), UniProt Q7Z5P4)
- Sequence (Q7Z5P4 20-300): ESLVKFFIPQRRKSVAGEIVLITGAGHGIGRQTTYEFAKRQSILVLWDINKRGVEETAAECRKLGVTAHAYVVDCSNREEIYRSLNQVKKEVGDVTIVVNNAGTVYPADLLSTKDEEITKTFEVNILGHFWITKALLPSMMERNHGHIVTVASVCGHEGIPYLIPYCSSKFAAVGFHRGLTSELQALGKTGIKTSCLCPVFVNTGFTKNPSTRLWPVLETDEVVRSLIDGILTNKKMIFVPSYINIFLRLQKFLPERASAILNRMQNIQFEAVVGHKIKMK
- measurement.protocol: HSD17B13 rapid-fire mass spectrometry assay (RF/MS assay)
- stated.conditions: inhibition of HSD17B13; LTB4 10 μM, NAD+ 0.5 mM, RT 3 h; IC50 ranges A-E

compound: COc1cc(C(=O)O)c(F)cc1NS(=O)(=O)c1csc(-c2ccc(C3CC4CCC(C4)C3)cc2)n1 (stereo not drawn)
measured.on: Recombinant human HSD17B13 (Homo sapiens (Human), UniProt Q7Z5P4)
IC50: 100 to 500 nM

compound: COc1cc(OC(F)F)ccc1NS(=O)(=O)c1cnc(-c2ccc(F)cc2)s1
measured.on: Recombinant human HSD17B13 (Homo sapiens (Human), UniProt Q7Z5P4)
IC50: 1000 to 100000 nM

compound: COc1cc(C(=O)O)ccc1NS(=O)(=O)c1csc(-c2cccnc2)n1
measured.on: Recombinant human HSD17B13 (Homo sapiens (Human), UniProt Q7Z5P4)
IC50: 1000 to 100000 nM

compound: O=C(O)c1ccc(NS(=O)(=O)c2cnc(-c3ccc(F)cc3)s2)cc1O
measured.on: Recombinant human HSD17B13 (Homo sapiens (Human), UniProt Q7Z5P4)
IC50: 500 to 1000 nM

compound: COc1cc(C(=O)O)ccc1NS(=O)(=O)c1ccc(-c2ccccc2)s1
measured.on: Recombinant human HSD17B13 (Homo sapiens (Human), UniProt Q7Z5P4)
IC50: 500 to 1000 nM

compound: COc1cc(C(=O)O)c(F)cc1NS(=O)(=O)c1cccc(-c2ccc(C3=CC[C@H](C(C)(C)C)CC3)cc2)c1F
measured.on: Recombinant human HSD17B13 (Homo sapiens (Human), UniProt Q7Z5P4)
IC50: < 100 nM

compound: COc1cc(C(=O)O)ccc1NS(=O)(=O)c1csc(N2CCCC(C(=O)c3ccccc3)C2)n1 (stereo not drawn)
measured.on: Recombinant human HSD17B13 (Homo sapiens (Human), UniProt Q7Z5P4)
IC50: 500 to 1000 nM

compound: COc1cc(C(=O)O)c(F)cc1NS(=O)(=O)c1csc(-c2ccc([C@H]3CC[C@@H](C(C)C)CC3)c(OC)c2F)n1
measured.on: Recombinant human HSD17B13 (Homo sapiens (Human), UniProt Q7Z5P4)
IC50: < 100 nM

compound: COc1cc(C(=O)O)ccc1NS(=O)(=O)c1cccc(-c2ccc(F)cc2)n1
measured.on: Recombinant human HSD17B13 (Homo sapiens (Human), UniProt Q7Z5P4)
IC50: 500 to 1000 nM

compound: COc1cc(C(=O)O)ccc1NS(=O)(=O)c1csc(N2CCCC(NCc3ccccc3)C2)n1 (stereo not drawn)
measured.on: Recombinant human HSD17B13 (Homo sapiens (Human), UniProt Q7Z5P4)
IC50: 1000 to 100000 nM

compound: COc1cc(C(=O)O)c(F)cc1NS(=O)(=O)c1cnc(-c2ccc(C3CCC(c4ccccc4)CC3)cc2)s1 (stereo not drawn)
measured.on: Recombinant human HSD17B13 (Homo sapiens (Human), UniProt Q7Z5P4)
IC50: 100 to 500 nM

compound: COc1cc(C(=O)O)c(F)cc1NS(=O)(=O)c1csc(-c2ccc([C@H]3CC[C@@H](C(C)(C)C)CC3)cc2)n1
measured.on: Recombinant human HSD17B13 (Homo sapiens (Human), UniProt Q7Z5P4)
IC50: 100 to 500 nM

compound: COc1cc(C(=O)O)ccc1NS(=O)(=O)c1csc(N2CCN(C(=O)OC(C)C)CC2)n1 [Example 347]
measured.on: Recombinant human HSD17B13 (Homo sapiens (Human), UniProt Q7Z5P4)
IC50: 1000 to 100000 nM

compound: COc1cc(C(=O)O)c(F)cc1NS(=O)(=O)c1ccc(-c2ccc(Cl)cc2)s1
measured.on: Recombinant human HSD17B13 (Homo sapiens (Human), UniProt Q7Z5P4)
IC50: < 100 nM

compound: COc1cc(C(=O)O)ccc1NS(=O)(=O)N1Cc2nc(-c3ccc4c(c3)OCCO4)sc2C1
measured.on: Recombinant human HSD17B13 (Homo sapiens (Human), UniProt Q7Z5P4)
IC50: 100 to 500 nM

compound: COc1cc(C(=O)O)ccc1NS(=O)(=O)c1csc(-c2ccc(C3CCCC3)cc2)n1
measured.on: Recombinant human HSD17B13 (Homo sapiens (Human), UniProt Q7Z5P4)
IC50: 500 to 1000 nM

compound: CCC[C@H]1CC[C@H]([C@H]2CC[C@@H](c3nc(S(=O)(=O)Nc4cc(F)c(C(=O)O)cc4OC)cs3)CC2)CC1
measured.on: Recombinant human HSD17B13 (Homo sapiens (Human), UniProt Q7Z5P4)
IC50: 100 to 500 nM

compound: COc1cc(NS(=O)(=O)c2cnc(-c3ccc(F)cc3)s2)ccc1C(=O)O
measured.on: Recombinant human HSD17B13 (Homo sapiens (Human), UniProt Q7Z5P4)
IC50: 1000 to 100000 nM

compound: COc1cc(C(=O)O)c(F)cc1NS(=O)(=O)c1csc(-c2ccc(C3=CCC(C(C)C)CC3)c(OC)c2F)n1 (stereo not drawn)
measured.on: Recombinant human HSD17B13 (Homo sapiens (Human), UniProt Q7Z5P4)
IC50: < 100 nM

compound: CC[C@H]1CC[C@H](c2ccc(-c3nc(S(=O)(=O)Nc4ccc(C(=O)O)cc4OC)cs3)cc2)CC1
measured.on: Recombinant human HSD17B13 (Homo sapiens (Human), UniProt Q7Z5P4)
IC50: < 100 nM

compound: COc1cc(C(=O)O)c(F)cc1NS(=O)(=O)c1csc(-c2cnc(C3=CCC(C)(C)CC3)c(F)c2)n1
measured.on: Recombinant human HSD17B13 (Homo sapiens (Human), UniProt Q7Z5P4)
IC50: 100 to 500 nM

compound: COc1cc(C(=O)O)ccc1NS(=O)(=O)c1cc(F)cc(-c2ccc(C3CCCCC3)cc2)c1
measured.on: Recombinant human HSD17B13 (Homo sapiens (Human), UniProt Q7Z5P4)
IC50: < 100 nM

compound: COc1cc(C(=O)O)c(F)cc1NS(=O)(=O)c1cnc(-c2ccc([C@H]3CC[C@@H](C)CC3)cc2)s1
measured.on: Recombinant human HSD17B13 (Homo sapiens (Human), UniProt Q7Z5P4)
IC50: 100 to 500 nM

compound: COc1cc(C(=O)O)ccc1NS(=O)(=O)c1csc(-c2ccc(C(=O)O)cc2OC)n1
measured.on: Recombinant human HSD17B13 (Homo sapiens (Human), UniProt Q7Z5P4)
IC50: 1000 to 100000 nM

compound: COc1cc(C(=O)O)c(F)cc1NS(=O)(=O)c1csc(-c2cnc(C3CCC(C)(C)CC3)c(F)c2)n1
measured.on: Recombinant human HSD17B13 (Homo sapiens (Human), UniProt Q7Z5P4)
IC50: 100 to 500 nM

compound: COc1cc(C(=O)O)ccc1NS(=O)(=O)c1csc(-c2cccc(C)c2)n1
measured.on: Recombinant human HSD17B13 (Homo sapiens (Human), UniProt Q7Z5P4)
IC50: 500 to 1000 nM

compound: O=S(=O)(O)c1ccc(NS(=O)(=O)c2cnc(-c3ccc(F)cc3)s2)cc1
measured.on: Recombinant human HSD17B13 (Homo sapiens (Human), UniProt Q7Z5P4)
IC50: > 100000 nM

compound: COc1cc(C(=O)O)ccc1S(=O)(=O)Nc1csc(-c2ccccc2)n1
measured.on: Recombinant human HSD17B13 (Homo sapiens (Human), UniProt Q7Z5P4)
IC50: 500 to 1000 nM

compound: COc1cc(C(=O)O)c(F)cc1NS(=O)(=O)c1coc(-c2ccc(C3CCC(OC(=O)N4CCOCC4)CC3)cc2)n1 (stereo not drawn)
measured.on: Recombinant human HSD17B13 (Homo sapiens (Human), UniProt Q7Z5P4)
IC50: < 100 nM

compound: COc1cc(C(=O)O)ccc1NS(=O)(=O)c1cccc(-c2ccc(C3=CCC(C(C)(C)C)CC3)cc2)c1F (stereo not drawn)
measured.on: Recombinant human HSD17B13 (Homo sapiens (Human), UniProt Q7Z5P4)
IC50: 100 to 500 nM
